test system: MCF7TDX cells; assay: 96-well crystal violet combination cytotoxicity assay with NB1011; assay type: cell-based, human; conditions: interaction with NB1011; note: key: Syn = synergy; Ant = antagonism; Add = additivity
readout type: Interaction

compound=CC[C@]1(O)C[C@@H]2CN(CCc3c([nH]c4ccccc34)[C@@](C(=O)OC)(c3cc4c(cc3OC)N(C)[C@H]3[C@@](O)(C(=O)OC)[C@H](OC(C)=O)[C@]5(CC)C=CCN6CC[C@]43[C@@H]65)C2)C1 subject_of_test="MCF7TDX cells" readout_type=Interaction value_observed=Ant
compound=OCCN(CCO)c1nc(N2CCCCC2)c2nc(N(CCO)CCO)nc(N3CCCCC3)c2n1 subject_of_test="MCF7TDX cells" readout_type=Interaction value_observed=Syn
compound="O=[N+]([O-])c1ccc(CSc2ncnc3c2ncn3C2OC(CO)C(O)C2O)cc1 (centres unmarked)" subject_of_test="MCF7TDX cells" readout_type=Interaction value_observed=Syn
compound=COc1cccc2c1C(=O)c1c(O)c3c(c(O)c1C2=O)C[C@@](O)(C(=O)CO)C[C@@H]3O[C@H]1C[C@H](N)[C@H](O)[C@H](C)O1 subject_of_test="MCF7TDX cells" readout_type=Interaction value_observed=Ant
compound=O=C1[O][Pt]2([NH][C@@H]3CCCC[C@H]3[NH]2)[O]C1=O subject_of_test="MCF7TDX cells" readout_type=Interaction value_observed=Ant
